- TEST SYSTEM: HSF-PLA2 (extracellular PLA2 obtained from human synovial fluid) (Homo sapiens, UniProt P14555)
- Construct: extracellular enzyme obtained from human synovial fluid; from tissue; host or cells: human synovial fluid (pooled)
- Sequence (P14555 21-144): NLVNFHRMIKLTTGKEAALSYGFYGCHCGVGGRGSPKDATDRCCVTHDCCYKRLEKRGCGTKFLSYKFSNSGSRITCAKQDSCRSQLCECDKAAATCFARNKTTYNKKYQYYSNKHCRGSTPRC
- ASSAY EXPLANATION: Assay for inhibition of HSF-PLA2 in vitro
- Assay type: biochemical
- RUN CONDITIONS: 5 μM test compound; read-out: % Inhib of HSF-PLA2
- Procedure: Assay for Inhibition of HSF-PLA2 In Vitro The PLA2 used in this test is the extracellular enzyme obtained from human synovial fluid (HSF-PLA2). The assay for HSF-PLA2 activity was a modification of the described method [Franson R., Dobrow R., Weiss, J., Elsbach P., and Weglick W. B., J. Lipid Res., 19, 18-23 (1978)] which was conducted using [1-^14 C]-oleate-labelled E. coli substrate in excess at a final concentration of 20,000 dpm/ml. […]
inhibition at 5 µM: recorded values

CCCCCCCCCCCCCCCCCCOc1cc(O)cc(C(=O)N(CC(=O)O)CC(=O)O)c1 [Example 39] = 20%
CCCCCCCCCCOc1cc(OCCCCCCCCCC)cc(C(=O)C(=O)N(CC(=O)O)CC(=O)O)c1 [Example 73] = 62%
CCCCCCCCCCCCCCCCCCOc1cc(C(=O)O)cc(C(=O)N(CC(=O)O)CC(=O)O)c1 [Example 30] = 23%
CCCCCCCCCCCCCCOc1cccc(C(=O)N(CC(=O)O)CC(=O)O)c1 [Example 5] = 13%

# inhibition at 5 µM (compound: CCCCCCCCCCOc1cccc(C(=O)N(CC(=O)O)CC(=O)O)c1 [Example 6] ) is 8%

The compound identified as CCCCCCCCCCCCCCCCCCOc1cc(OCCCOc2ccccc2)cc(C(=O)N(CC(=O)O)CC(=O)O)c1 [Example 18] registered its inhibition at 5 µM at 72%

Cited source for all entries: patent US5298652A
